Consider the following molecules; for each one, report its pEC50.
Target or system: human GPR43 (Homo sapiens, UniProt O15552)
Sequence (O15552 1-330): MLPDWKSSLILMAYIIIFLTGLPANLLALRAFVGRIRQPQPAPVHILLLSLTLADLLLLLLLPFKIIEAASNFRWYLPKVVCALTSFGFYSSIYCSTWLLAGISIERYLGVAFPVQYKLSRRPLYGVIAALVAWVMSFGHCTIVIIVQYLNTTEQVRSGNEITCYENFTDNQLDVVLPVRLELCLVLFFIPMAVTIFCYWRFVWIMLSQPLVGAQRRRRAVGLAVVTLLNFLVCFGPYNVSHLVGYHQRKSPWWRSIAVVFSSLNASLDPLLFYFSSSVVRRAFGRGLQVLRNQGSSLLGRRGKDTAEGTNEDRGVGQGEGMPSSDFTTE
Experiment summary: Ca2+ flux assay in HEK293-hGPR43 cells
Type: cell-based
Here pEC50 is given on a logarithmic scale as minus log10 of the concentration in mol/L.

Request: Report pEC50 from human GPR43 (Homo sapiens, UniProt O15552) testing of Cc1nc(N2CCCC(C)C2)c2[nH]c(N)c(S(=O)(=O)c3ccccc3)c2n1 (centres unmarked)
Result: 5.62

Request: Quote human GPR43 (Homo sapiens, UniProt O15552) pEC50 for entry Cc1nc(N2C[C@@H](C)O[C@@H](C)C2)c2[nH]c(N)c(S(=O)(=O)c3ccccc3F)c2n1 .
Result: 7.72

----------
Target or system: GPR43 and β-arrestin 2 (Homo sapiens)
Sequence (O15552 1-330): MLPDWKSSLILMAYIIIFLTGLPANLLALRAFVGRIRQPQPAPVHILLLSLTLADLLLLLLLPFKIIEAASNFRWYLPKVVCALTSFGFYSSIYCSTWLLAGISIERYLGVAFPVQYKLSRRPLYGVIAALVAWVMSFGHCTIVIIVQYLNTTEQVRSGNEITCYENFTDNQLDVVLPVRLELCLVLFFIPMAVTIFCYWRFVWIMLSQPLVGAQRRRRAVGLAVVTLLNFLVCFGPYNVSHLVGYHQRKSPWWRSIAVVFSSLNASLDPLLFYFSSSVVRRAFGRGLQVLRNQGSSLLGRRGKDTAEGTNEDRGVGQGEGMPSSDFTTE
Experiment summary: Nano-Glo live cell assay of interaction between GPR43 and β-arrestin 2
Assay type: cell-based
I'd appreciate it if you could supply EC50 values for the items below.
Enter your answer as a number in nM; do not include the unit.

Request: Report measured EC50; entry is Cc1nc(N2CCCC(C)C2)c2[nH]c(N)c(S(=O)(=O)c3ccccc3)c2n1 (centres unmarked)
Result: 1610

Request: Using the record for Cc1nc(N2C[C@@H](C)O[C@@H](C)C2)c2[nH]c(N)c(S(=O)(=O)c3ccccc3F)c2n1 , state its measured EC50.
Result: 18

----------
Target or system: human GPR43 (Homo sapiens)
Experiment summary: GloSensor cAMP assay in HEK293-hGPR43 cells
Assay type: cell-based
Conditions used: read-out: EC50 cAMP; HEK293-hGPR43, forskolin 1 μM
Metric name: EC50 (µM)
The answer is to be given in µM; state only the numeric part.

Request: Specify reported EC50 for the molecule shown: CC(=O)[O-].[Na+] [Acetate, sodium acetate, reference compound]
Result: 301

----------
Target or system: human GPR43 (Homo sapiens)
Experiment summary: GloSensor cAMP assay in HEK293-hGPR43 cells
Format: cell-based
Conditions used: read-out: EC50 in the cAMP assay; HEK293-hGPR43
Metric name: EC50 (µM)
Value expressed in µM; do not type the unit.

Request: Give the reported EC50 for this molecule. CC(=O)[O-].[Na+] [Acetate, sodium acetate, reference compound]
Result: 300

The reported measurements were obtained from paper PMC8724840.
